Property: EC50 (read off the curve); scope: individual binders
system_tested: T1, human CTLA4-Fc (Fitzgerald #30R-CD152) (human, UniProt P16410 38-152)
T1 construct: Bought reagent; also called biotinylated-CTLA4; human CTLA-4 (Fitzgerald); not shown: Fc part of the bought fusion
assay_protocol: binding ELISA, CTLA4-Fc coated, sample titrated, anti-human IgG Fc-HRP, chemiluminescence, data normalised to % [lower panel]
Method: The plates were washed (Wash buffer: PBS+0.05% Tween 20 (PBST) Medicago #09-9410-100) and then blocked in PBST+3% BSA (Merck, #1.12018.0100). […] Detection antibody, goat-anti-human IgG Fγy-HRP (Jackson, #109-035-098) was added and the plates were subsequently developed using SuperSignal Pico Chemiluminescent substrate (Thermo #37069) and detected with an Envision reader (Perkin Elmer).

Known results for binders:
CD86 mutant clone 1044, gamma2/gamma4 fusion (Fc fusion, Expressed as gamma2/gamma4 fusion, protein A purified; not shown: gamma2/gamma4 Fc) APLKIQAYFNETADLPCQFANSQNLTLSELVVFWQDQENLVLNEVYLGKEKFDSVSSKYMGRTSFDSDSWTLRLHNLQIKDKGIYQCIIHHKKPTGMIKIHEMSSELSVLA; ~0.03 µg/mL
CD86 mutant clone 1045, gamma2/gamma4 fusion (Fc fusion, Expressed as gamma2/gamma4 fusion, protein A purified; not shown: gamma2/gamma4 Fc) APLKIQAYFNETADLPCQFANSQNLTLSELVVFWQDQENLVLNEVYLGKEKFDSVDSKYMGRTSFDSDSWTLRLHNLQIKDKGLYQCIIHHKKPTGLVKIHEMNSELSVLA; ~0.05 µg/mL

*Q* Item CD86 mutant clone 1046, gamma2/gamma4 fusion (Fc fusion, Expressed as gamma2/gamma4 fusion, protein A purified; not shown: gamma2/gamma4 Fc) APLKIQAYFNETADLPCQFANSQNQSLSELVVFWQDQENLVLNEVYLGKEKFDSVDSKYMGRTSFDSDSWTLRLHNLQIEDKGIYQCIIHHKKPSGMVKIHQMDSELSVLA has what recorded EC50 (read off the curve)?
*A* ~0.02 µg/mL

*Q* Item CD86 mutant clone 1043, gamma2/gamma4 fusion (Fc fusion, Expressed as gamma2/gamma4 fusion, protein A purified; not shown: gamma2/gamma4 Fc) APLKIQAYFNETADLPCQFANSQNLSLSELVVFWQDQENLVLNEVYLGKEKFDSVDSKYMGRTSFDSDSWTLRLHNLQIKDKGIYQCIIHHKKPTGMIKIHEMNSELSVLA has what recorded EC50 (read off the curve)?
*A* ~0.04 µg/mL

// data source = patent US20170304437A1
